The origin of these recorded values is patent US7514448B2.

Ki listing for selected molecules.
System: PKA (Homo sapiens)

[
  {
    "Molecule": "CO[C@@H](C)C(=O)Nc1nc(-c2c[nH]c3ncccc23)cs1",
    "System": "PKA (Homo sapiens)",
    "Ki": "500 to 5000 nM"
  },
  {
    "Molecule": "COc1ccc(CC(=O)Nc2nc(-c3c[nH]c4ncc(F)cc34)cs2)c(Cl)c1",
    "System": "PKA (Homo sapiens)",
    "Ki": "< 500 nM"
  },
  {
    "Molecule": "O=C(Cc1ccc(F)cc1)N(c1nc(-c2c[nH]c3ncccc23)cs1)C1CC1",
    "System": "PKA (Homo sapiens)",
    "Ki": "< 500 nM"
  },
  {
    "Molecule": "O=C(Cc1cccc(S(=O)(=O)N2CCOCC2)c1)Nc1ccc(-c2c[nH]c3ncccc23)s1",
    "System": "PKA (Homo sapiens)",
    "Ki": "500 to 5000 nM"
  },
  {
    "Molecule": "O=C(Cc1ccc(F)cc1F)Nc1nc(-c2c[nH]c3nccc(F)c23)cs1",
    "System": "PKA (Homo sapiens)",
    "Ki": "< 500 nM"
  },
  {
    "Molecule": "CC(C)C(CO)NC(=O)c1nc(-c2c[nH]c3ncccc23)cs1 (stereo not drawn)",
    "System": "PKA (Homo sapiens)",
    "Ki": "500 to 5000 nM"
  },
  {
    "Molecule": "O=C(Nc1nc(-c2c[nH]c3ncccc23)cs1)[C@@H](O)c1ccccc1",
    "System": "PKA (Homo sapiens)",
    "Ki": "< 500 nM"
  },
  {
    "Molecule": "NCC(=O)Nc1nc(-c2c[nH]c3ncccc23)cs1",
    "System": "PKA (Homo sapiens)",
    "Ki": "< 500 nM"
  },
  {
    "Molecule": "c1cnc2[nH]cc(-c3csc(NCC4CCCO4)n3)c2c1 (stereo not drawn)",
    "System": "PKA (Homo sapiens)",
    "Ki": "500 to 5000 nM"
  }
]
